Molecular target: huMR (Homo sapiens, UniProt P08235)
Sequence (P08235 1-984): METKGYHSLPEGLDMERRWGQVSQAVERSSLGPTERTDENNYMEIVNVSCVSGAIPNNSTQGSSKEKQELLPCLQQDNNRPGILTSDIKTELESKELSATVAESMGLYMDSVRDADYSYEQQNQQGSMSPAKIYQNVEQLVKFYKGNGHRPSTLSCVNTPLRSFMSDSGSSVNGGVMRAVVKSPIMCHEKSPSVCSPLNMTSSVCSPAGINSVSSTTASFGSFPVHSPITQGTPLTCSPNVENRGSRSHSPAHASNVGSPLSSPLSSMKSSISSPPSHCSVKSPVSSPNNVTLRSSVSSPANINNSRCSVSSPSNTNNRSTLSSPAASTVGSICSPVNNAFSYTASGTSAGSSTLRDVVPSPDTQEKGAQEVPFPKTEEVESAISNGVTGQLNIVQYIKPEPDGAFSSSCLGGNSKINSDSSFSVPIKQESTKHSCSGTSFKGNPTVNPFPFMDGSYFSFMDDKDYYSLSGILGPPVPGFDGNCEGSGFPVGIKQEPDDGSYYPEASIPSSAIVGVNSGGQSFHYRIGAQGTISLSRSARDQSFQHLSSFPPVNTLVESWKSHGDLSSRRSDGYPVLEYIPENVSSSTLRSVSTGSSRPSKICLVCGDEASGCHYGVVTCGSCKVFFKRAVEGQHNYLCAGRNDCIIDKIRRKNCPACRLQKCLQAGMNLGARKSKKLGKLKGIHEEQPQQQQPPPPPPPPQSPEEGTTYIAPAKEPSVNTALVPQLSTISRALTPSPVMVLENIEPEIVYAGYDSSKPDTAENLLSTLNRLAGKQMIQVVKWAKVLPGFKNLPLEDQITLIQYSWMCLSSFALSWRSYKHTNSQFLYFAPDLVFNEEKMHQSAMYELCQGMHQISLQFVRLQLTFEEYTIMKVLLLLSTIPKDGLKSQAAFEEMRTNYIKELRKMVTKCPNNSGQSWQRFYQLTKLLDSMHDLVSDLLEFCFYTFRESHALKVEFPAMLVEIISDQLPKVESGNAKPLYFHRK

| compound | Kd, nM |
| --- | --- |
| C[C@]12C=CC(=O)C=C1CCC1C2[C@@H](O)C[C@@]2(C)C1CC[C@]2(O)C(=O)CNC(=O)c1ccc(F)cc1 (some centres unmarked) | 4030 |
| C[C@]12C=CC(=O)C=C1CCC1C2[C@@H](O)C[C@@]2(C)C1CC[C@]2(O)C(=O)COCCCF (some centres unmarked) | 212 |

###

This document collects Kd values reported for huAR (Homo sapiens).
observable: Kd (nM)

| compound | observable | observed |
| --- | --- | --- |
| C[C@]12C=CC(=O)C=C1CCC1C2[C@@H](O)C[C@@]2(C)C1CC[C@]2(O)C(=O)COCCCF (some centres unmarked) | Kd | 1460 |
| C[C@]12C=CC(=O)C=C1CCC1C2[C@@H](O)C[C@@]2(C)C1CC[C@]2(O)C(=O)CNC(=O)c1ccc(F)cc1 (some centres unmarked) | Kd | 1260 |

###

Experiment: Log P determination (octanol:water)
Format: physicochemical
Conditions: octanol:water 1:1 v/v
observable: logP

| molecule | observed |
| --- | --- |
| C[C@]12C=CC(=O)C=C1CCC1C2[C@@H](O)C[C@@]2(C)C1CC[C@]2(O)C(=O)CNC(=O)c1ccc(F)cc1 (stereo partly shown) | 1.33 |
